Molecular target: recombinant human GR (Homo sapiens)
Sequence (P04150 1-777): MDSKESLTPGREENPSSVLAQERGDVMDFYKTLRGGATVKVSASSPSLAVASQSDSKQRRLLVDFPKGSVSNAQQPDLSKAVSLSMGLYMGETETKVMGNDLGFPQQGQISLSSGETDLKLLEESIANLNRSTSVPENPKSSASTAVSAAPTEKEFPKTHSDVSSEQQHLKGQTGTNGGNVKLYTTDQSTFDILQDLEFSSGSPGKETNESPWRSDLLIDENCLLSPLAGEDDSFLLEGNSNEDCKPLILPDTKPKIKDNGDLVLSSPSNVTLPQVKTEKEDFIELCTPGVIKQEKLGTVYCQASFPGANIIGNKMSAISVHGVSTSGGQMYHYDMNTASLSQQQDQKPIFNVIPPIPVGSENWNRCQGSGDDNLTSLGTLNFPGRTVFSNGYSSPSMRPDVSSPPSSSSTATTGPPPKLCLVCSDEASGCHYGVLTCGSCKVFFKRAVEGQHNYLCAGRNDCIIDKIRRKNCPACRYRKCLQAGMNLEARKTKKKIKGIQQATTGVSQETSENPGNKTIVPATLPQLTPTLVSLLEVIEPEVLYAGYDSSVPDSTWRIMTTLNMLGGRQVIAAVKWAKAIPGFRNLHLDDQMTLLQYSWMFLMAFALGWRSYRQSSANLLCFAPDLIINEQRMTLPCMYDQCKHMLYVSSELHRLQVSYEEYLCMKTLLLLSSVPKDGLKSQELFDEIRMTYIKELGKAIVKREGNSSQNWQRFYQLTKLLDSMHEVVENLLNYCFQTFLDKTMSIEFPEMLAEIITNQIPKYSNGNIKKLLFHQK
Test: Human Glucocorticoid Receptor (GR) Assay, fluorescence polarization
Conditions: GS Red tracer, incubated 2 h at r.t., XLfit model 205, read-out: GRhuFL_FP_v2 Mean IC50
# label = YES if IC50 < 4 nM else NO

# compound, category
rows = [
    ("Cc1ccc(F)cc1[C@@H](Oc1ccc2c(cnn2-c2ccc(F)cc2)c1)[C@H](C)NC(=O)C(C)(F)F [Example 234]", "NO"),
    ("Cc1ccc([C@@H](Oc2ccc3c(cnn3-c3ccc(F)cc3)c2)[C@H](C)NC(=O)C(F)(F)F)cc1C [Example 149]", "NO"),
    ("C[C@H](NC(=O)C(F)(F)F)[C@H](Oc1ccc2c(cnn2-c2ccc(F)cc2)c1)c1ccc2c(c1)OCO2 [Example 166]", "NO"),
    ("COc1cccc([C@@H](Oc2ccc3c(cnn3-c3ccc(F)cc3)c2)[C@H](C)NC(=O)C(N)=O)c1 [Example 76]", "YES"),
]

Now examine the next entry.
Query block: A record lists COc1c(C)cc([C@@H](Oc2ccc3c(cnn3-c3ccc(F)cc3)c2)[C@H](C)NC(=O)C(C)(C)C)cc1C [Example 182] . Is its IC50 below 4 nM?
Result block: NO
